Ref: patent US20130251724A1

Consider the following binders; for each one, report its pKd.
- Tested on: T1, Human OSM (human, UniProt P13725 26-221)
- T1 construct: Recombinant human OSM; also called hOSM; human Oncostatin M
- T1 sequence: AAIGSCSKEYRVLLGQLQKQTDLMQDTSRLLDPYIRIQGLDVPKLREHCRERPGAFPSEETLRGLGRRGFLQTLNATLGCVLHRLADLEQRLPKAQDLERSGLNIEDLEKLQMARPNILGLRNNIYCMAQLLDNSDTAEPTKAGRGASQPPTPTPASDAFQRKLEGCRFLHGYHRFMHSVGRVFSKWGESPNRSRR
- Measurement description: SPR (ProteOn XPR36 or Biacore T100), captured supernatant, OSM as analyte [continued]
Give bare numbers, as −log10 of the molar value.

Below are worked cases with known answers.
Pos 95 Thr (antibody, V domains shown, also called CDRH3 D95>T) VH: EVQLVESGGGLVQPGGSLRLSCAASGFTFSSYAMSWVRQAPGKGLEWVATISDGGSFTYYLDNVRGRFTISRDNAKNSLYLQMNSLRAEDTAVYYCARTVGHTTFWYFDVWGRGTLVTVSS VL: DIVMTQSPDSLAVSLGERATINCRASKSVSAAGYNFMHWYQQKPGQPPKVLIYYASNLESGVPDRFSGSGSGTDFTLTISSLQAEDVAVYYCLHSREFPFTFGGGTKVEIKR; 9.20
Pos 96 Trp (antibody, V domains shown, also called CDRH3 V96>W) VH: EVQLVESGGGLVQPGGSLRLSCAASGFTFSSYAMSWVRQAPGKGLEWVATISDGGSFTYYLDNVRGRFTISRDNAKNSLYLQMNSLRAEDTAVYYCARDWGHTTFWYFDVWGRGTLVTVSS VL: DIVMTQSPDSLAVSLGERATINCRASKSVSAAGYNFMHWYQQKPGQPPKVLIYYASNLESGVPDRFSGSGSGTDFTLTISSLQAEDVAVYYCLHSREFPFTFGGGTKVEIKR; 9.01
Pos 100D Trp (antibody, V domains shown, also called CDRH3 F100D>W) VH: EVQLVESGGGLVQPGGSLRLSCAASGFTFSSYAMSWVRQAPGKGLEWVATISDGGSFTYYLDNVRGRFTISRDNAKNSLYLQMNSLRAEDTAVYYCARDVGHTTFWYWDVWGRGTLVTVSS VL: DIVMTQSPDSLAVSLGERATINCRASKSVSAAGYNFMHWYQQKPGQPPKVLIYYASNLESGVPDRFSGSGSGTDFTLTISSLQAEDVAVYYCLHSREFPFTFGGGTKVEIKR; 9.15
Pos 101 Val (antibody, V domains shown, also called CDRH3 D101>V) VH: EVQLVESGGGLVQPGGSLRLSCAASGFTFSSYAMSWVRQAPGKGLEWVATISDGGSFTYYLDNVRGRFTISRDNAKNSLYLQMNSLRAEDTAVYYCARDVGHTTFWYFVVWGRGTLVTVSS VL: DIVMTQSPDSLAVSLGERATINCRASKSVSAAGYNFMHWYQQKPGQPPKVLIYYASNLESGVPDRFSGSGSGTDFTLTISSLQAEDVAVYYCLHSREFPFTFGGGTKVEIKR; 9.36

Please fill in: pKd reported for Pos 100C Val (antibody, V domains shown, also called CDRH3 Y100C>V) VH: EVQLVESGGGLVQPGGSLRLSCAASGFTFSSYAMSWVRQAPGKGLEWVATISDGGSFTYYLDNVRGRFTISRDNAKNSLYLQMNSLRAEDTAVYYCARDVGHTTFWVFDVWGRGTLVTVSS VL: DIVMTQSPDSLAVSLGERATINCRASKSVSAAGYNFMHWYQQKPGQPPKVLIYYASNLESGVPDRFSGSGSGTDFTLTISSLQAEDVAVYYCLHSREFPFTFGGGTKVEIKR = 9.25
